The origin of these recorded values is paper PMC5320532.

# Test: Intracellular fraction of unbound compound (fu,cell), dialysis of cell homogenate
# Run Parameters: dog, homogenate of MDCK cells transfected with human P-gp
Parameter Measured: fraction unbound at 4 h

Field: example entries. Status: answers known.
Molecule	Parameter Measured	Readout Number
O=C(O)Cc1ccccc1Nc1c(Cl)cccc1Cl	fraction unbound at 4 h	0.033
Cc1c(O)cccc1C(=O)N[C@@H](CSc1ccccc1)[C@H](O)CN1C[C@H]2CCCC[C@H]2C[C@H]1C(=O)NC(C)(C)C	fraction unbound at 4 h	0.0001
CCOc1nc2cccc(C(=O)O)c2n1Cc1ccc(-c2ccccc2-c2nnn[nH]2)cc1	fraction unbound at 4 h	0.29
Cc1cccc(C)c1OCC(=O)N[C@@H](Cc1ccccc1)[C@@H](O)C[C@H](Cc1ccccc1)NC(=O)[C@H](C(C)C)N1CCCNC1=O	fraction unbound at 4 h	0.0061

A. COc1ccc2c(c1)c(CC(=O)O)c(C)n2C(=O)c1ccc(Cl)cc1
B. NC(=O)N1c2ccccc2C=Cc2ccccc21 [Carbamazepine]
In: Which entry shows the lesser value of fraction unbound at 4 h here, A or B ? Please identify the chosen entry by its label.
Out: A

1. CCOc1cc(CC(=O)N[C@@H](CC(C)C)c2ccccc2N2CCCCC2)ccc1C(=O)O [Repaglinide]
2. CC(C)NCC(O)COc1cccc2ccccc12 (centres unmarked)
In: Just curious, which one has the larger fraction unbound at 4 h reading, 1 or 2 ? Kindly give the label for the entry you pick.
Out: 1
(1: 0.0069, 2: 0.0037)

* * *

# Test: Intracellular fraction of unbound compound (fu,cell), dialysis of cell homogenate
# Run Parameters: dog, homogenate of MDCK cells transfected with human P-gp
Parameter Measured: fraction unbound at 4 h

Below, 2 compounds whose answers are already recorded.
Compound	fraction unbound at 4 h
Cc1nccn1CC1CCc2c(c3ccccc3n2C)C1=O (centres unmarked)	0.031
Cn1c(=O)c2c(ncn2C)n(C)c1=O	1

I. CCOC(=O)[C@H](CCc1ccccc1)N[C@@H](C)C(=O)N1CCC[C@H]1C(=O)O
II. CC(=O)N1CCN(c2ccc(OCC3COC(Cn4ccnc4)(c4ccc(Cl)cc4Cl)O3)cc2)CC1 (centres unmarked)
III. CC(C)n1c(/C=C/C(O)CC(O)CC(=O)O)c(-c2ccc(F)cc2)c2ccccc21 (centres unmarked)
In: Let's sort these by fraction unbound at 4 h, smallest first. Go ahead? Return value: ordered labels per request.
Out: II, III, I
(II: 0.0042, III: 0.0099, I: 1)

A. CCC(C)(C)C(=O)O[C@H]1C[C@@H](C)C=C2C=C[C@H](C)[C@H](CC[C@@H](O)C[C@@H](O)CC(=O)O)[C@H]21
B. O=C(O)C[C@H](O)C[C@H](O)/C=C/c1c(C2CC2)nc2ccccc2c1-c1ccc(F)cc1
In: # return whichever of A and B has the smaller fraction unbound at 4 h # respond with the chosen item's label
Out: A
(A: 0.0097, B: 0.023)

* * *

# Tested on: P-gp
# Test: Intracellular compound accumulation (Kp) and intracellular bioavailability (Fic)
# Run Parameters: dog, P-gp-KO (CRISPR) MDCK cells
Parameter Measured: Kp at 45 min, 0.5 μM

Worked set:
Compound	Kp at 45 min, 0.5 μM
Cc1nccn1CC1CCc2c(c3ccccc3n2C)C1=O (centres unmarked)	83
CN(CCOc1ccc(CC2SC(=O)NC2=O)cc1)c1ccccn1 (centres unmarked)	67
CCc1c2c(nc3ccc(OC(=O)N4CCC(N5CCCCC5)CC4)cc13)-c1cc3c(c(=O)n1C2)COC(=O)[C@]3(O)CC	13

1. NC(=O)N1c2ccccc2C=Cc2ccccc21 [Carbamazepine]
2. COc1cc2nc(N3CCN(C(=O)c4ccco4)CC3)nc(N)c2cc1OC
In: Hi team, can someone confirm which has the larger Kp at 45 min, 0.5 μM: 1 or 2 ? Thanks. Lab log: write the label of the selected item as the result.
Out: 2
(2: 54, 1: 8.4)

A. CCOC(=O)[C@H](CCc1ccccc1)N[C@@H](C)C(=O)N1CCC[C@H]1C(=O)O
B. Cc1c(O)cccc1C(=O)N[C@@H](CSc1ccccc1)[C@H](O)CN1C[C@H]2CCCC[C@H]2C[C@H]1C(=O)NC(C)(C)C
In: Smaller Kp at 45 min, 0.5 μM value? Options are A and B Please reply using the label of the selected record.
Out: A
